Numbers sourced from paper PMC11097374.

Some molecules, each annotated with its measured Wi-38 IC100.
- Test system: Wi-38 normal human lung fibroblast cells
- protocolDetails: MTT assay against normal human cell line
- Format: cell-based
- assayContext: MTT, 72 h; SI calls it EC100, dose at 100% cell viability; mean ± SEM
Mention the unit after the number when you answer.

Give the measured Wi-38 IC100 of COc1cccc2c1C(=O)c1c(O)c3c(c(O)c1C2=O)C[C@@](O)(C(=O)CO)C[C@@H]3O[C@H]1C[C@H](N)[C@H](O)[C@H](C)O1 [DOX., doxorubicin, reference compound] .
0.119 ± 0.005 µM

Fill in the blank: the reported Wi-38 IC100 of `Cc1cc(=O)n2c(C)nn(CC(=O)N/N=C/c3ccccc3O)c2n1` is ____.
0.269 ± 0.026 µM

Return reported Wi-38 IC100; argument: `Cc1cc(=O)n2c(C)n[nH]c2n1`
0.206 ± 0.014 µM

Consider the molecule `COc1ccc(/C=N/NC(=O)Cn2nc(C)n3c(=O)cc(C)nc23)cc1` and give its measured Wi-38 IC100.
0.280 ± 0.037 µM
